This collection of values is drawn from paper PMC9071491.

- tgt: SaMetRS (Staphylococcus aureus)
- Construct: full-length SaMetRS (SaMetRS-FL) (residues 1–657) was expressed and purified in the same manner; made in house; host or cells: E. coli BL21 (DE3)
- test protocol: tRNA-dependent ATP consumption assay
- Format: biochemical
- test context: 50 nM SaMetRS-FL, 4 μM ATP, 500 μM L-Met; read-out: IC50, ATP consumption assay
observable: pIC50
A value of pIC50 is the negative decimal logarithm of a concentration given in moles per litre.

input: Using the record for CNC(=O)c1ccc2c(c1)nc(-c1ccc(Br)c(O)c1)n2C(CNC(=O)OCc1ccccc1)c1ccc(OC)c(OC)c1 (stereo not shown) [P21] , state its measured pIC50.
output: 5.51

* * *

- tgt: SaMetRS (Staphylococcus aureus)
- Construct: full-length SaMetRS (SaMetRS-FL) (residues 1–657) was expressed and purified in the same manner; made in house; host or cells: E. coli BL21 (DE3)
- test protocol: biochemical
- Format: binding
- test context: read-out: ΔTm (°C) Tm(Frg+ATP)-Tm(ATP)
observable: ΔTm at 1000 µM
Number first, unit second: that is the form wanted.

input: Tell me ΔTm at 1000 µM of O=[N+]([O-])c1ccc(O)c(O)c1 when tested on SaMetRS (Staphylococcus aureus).
output: 1.2 °C

input: Tell me ΔTm at 1000 µM of NCc1c[nH]c2ccccc12 when tested on SaMetRS (Staphylococcus aureus).
output: 1.7 °C

input: Tell me ΔTm at 1000 µM of Clc1cn2ccsc2n1 when tested on SaMetRS (Staphylococcus aureus).
output: 1.8 °C

input: Tell me ΔTm at 1000 µM of NCCNc1cccc2ccccc12 when tested on SaMetRS (Staphylococcus aureus).
output: 1.3 °C

input: Tell me ΔTm at 1000 µM of CC(C)(C)Sc1cccnc1N when tested on SaMetRS (Staphylococcus aureus).
output: 2.5 °C

input: Tell me ΔTm at 1000 µM of NC1Cc2ccccc2C1 when tested on SaMetRS (Staphylococcus aureus).
output: 2.5 °C

input: Tell me ΔTm at 1000 µM of O=[N+]([O-])c1ccc2[nH]ncc2c1 when tested on SaMetRS (Staphylococcus aureus).
output: 2.1 °C

input: Tell me ΔTm at 1000 µM of Nc1nc2ccccc2[nH]1 when tested on SaMetRS (Staphylococcus aureus).
output: 1.3 °C

* * *

- tgt: SaMetRS (Staphylococcus aureus, UniProt P67578)
- Construct: full-length SaMetRS (SaMetRS-FL) (residues 1–657) was expressed and purified in the same manner; made in house; host or cells: E. coli BL21 (DE3)
- Sequence (P67578 whole entry, the tested form may be a part): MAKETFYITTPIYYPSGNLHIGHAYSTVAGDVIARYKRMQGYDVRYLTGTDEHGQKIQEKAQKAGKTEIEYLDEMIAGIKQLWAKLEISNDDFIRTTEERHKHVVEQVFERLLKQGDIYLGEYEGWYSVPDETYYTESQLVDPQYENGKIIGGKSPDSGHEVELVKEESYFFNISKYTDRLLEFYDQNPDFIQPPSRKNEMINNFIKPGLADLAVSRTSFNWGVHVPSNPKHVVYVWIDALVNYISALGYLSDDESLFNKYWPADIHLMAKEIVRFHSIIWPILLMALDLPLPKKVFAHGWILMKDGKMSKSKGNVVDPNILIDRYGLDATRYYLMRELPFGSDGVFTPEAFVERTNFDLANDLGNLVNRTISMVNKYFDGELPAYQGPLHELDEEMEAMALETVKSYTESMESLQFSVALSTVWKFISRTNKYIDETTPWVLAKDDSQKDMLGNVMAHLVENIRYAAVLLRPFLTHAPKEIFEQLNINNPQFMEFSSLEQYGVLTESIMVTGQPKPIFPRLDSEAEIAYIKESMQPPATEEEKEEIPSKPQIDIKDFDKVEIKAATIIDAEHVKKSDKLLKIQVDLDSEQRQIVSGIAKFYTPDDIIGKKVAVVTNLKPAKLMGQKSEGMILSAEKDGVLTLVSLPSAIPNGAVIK
- test protocol: isothermal titration calorimetry (ITC) assay
- Format: binding
- test context: SaMetRS apo, without ATP, 25°C; read-out: Kd, fragment to SaMetRS alone
observable: pKd
A value of pKd is the negative decimal logarithm of a concentration given in moles per litre.

input: Using the record for CC(C)(C)Sc1cccnc1N [T2-15] , state its measured pKd.
output: 4.10

* * *

- tgt: SaMetRS (Staphylococcus aureus, UniProt P67578)
- Construct: full-length SaMetRS (SaMetRS-FL) (residues 1–657) was expressed and purified in the same manner; made in house; host or cells: E. coli BL21 (DE3)
- test protocol: tRNA-dependent ATP consumption assay
- Assay type: biochemical
observable: IC50 (nM)
Express your answer in nM, writing the number without its unit.

input: Using the record for CNC(=O)c1ccc2c(c1)nc(-c1ccc(Br)c(O)c1)n2C(CNC(=O)COc1ccccc1C(C)(C)C)c1ccc(OC)c(OC)c1 (stereo not shown) , state its measured IC50.
output: 223

* * *

- tgt: SaMetRS (Staphylococcus aureus)
- Construct: full-length SaMetRS (SaMetRS-FL) (residues 1–657) was expressed and purified in the same manner; made in house; host or cells: E. coli BL21 (DE3)
- test protocol: isothermal titration calorimetry (ITC) assay
- Assay type: binding
- test context: read-out: Kd, ATP to SaMetRS saturated with M3-88; SaMetRS preincubated with 5 mM M3-88, 25°C
- Procedure: The affinities of ligands to SaMetRS were measured by using a MicroCal PEAQ-ITC microcalorimeter. […] The interval between two injections was 150 s. The disassociation constants (Kd) were determined by fitting the calorimetric data to a one-site binding model by using MicroCal PEAQ-ITC analysis software.
observable: pKd
A value of pKd is the negative decimal logarithm of a concentration given in moles per litre.

input: Using the record for Nc1ncnc2c1ncn2[C@@H]1O[C@H](COP(=O)(O)OP(=O)(O)OP(=O)(O)O)[C@@H](O)[C@H]1O [ATP] , state its measured pKd.
output: 4.85

* * *

- tgt: SaMetRS (Staphylococcus aureus)
- Construct: full-length SaMetRS (SaMetRS-FL) (residues 1–657) was expressed and purified in the same manner; made in house; host or cells: E. coli BL21 (DE3)
- test protocol: pretransfer editing assay (malachite green)
- Format: biochemical
- test context: read-out: Inhibitory rate (%)
What inhibition at 1000 µM was measured for each of the following?

input: Using the record for Clc1cn2ccsc2n1 [M3-146] , state its measured inhibition at 1000 µM.
output: < 20%

input: Using the record for Nc1nc2ccccc2[nH]1 [M1-68] , state its measured inhibition at 1000 µM.
output: < 20%

input: Using the record for N[C@@H]1C[C@@H]1c1ccccc1 [B54] , state its measured inhibition at 1000 µM.
output: < 20%

input: Using the record for O=[N+]([O-])c1ccc2[nH]ncc2c1 [B128] , state its measured inhibition at 1000 µM.
output: 30.4%

input: Using the record for NC1Cc2ccccc2C1 [M2-80] , state its measured inhibition at 1000 µM.
output: < 20%

input: Using the record for O=[N+]([O-])c1ccc(O)c(O)c1 [A6] , state its measured inhibition at 1000 µM.
output: < 20%

input: Using the record for CC(C)(C)Sc1cccnc1N [T2-15] , state its measured inhibition at 1000 µM.
output: 65.3%

input: Using the record for NCc1c[nH]c2ccccc12 [B63] , state its measured inhibition at 1000 µM.
output: 38.2%

input: Using the record for NCCNc1cccc2ccccc12 [M2-293] , state its measured inhibition at 1000 µM.
output: 67.3%

* * *

- tgt: SaMetRS (Staphylococcus aureus, UniProt P67578)
- Construct: full-length SaMetRS (SaMetRS-FL) (residues 1–657) was expressed and purified in the same manner; made in house; host or cells: E. coli BL21 (DE3)
- test protocol: biochemical
- Type: binding
- test context: read-out: ΔTm (°C) Tm(Frg)-Tm(apo)
observable: ΔTm at 1000 µM (°C)
Express your answer in °C, writing the number without its unit.

input: Using the record for O=[N+]([O-])c1ccc(O)c(O)c1 [A6] , state its measured ΔTm at 1000 µM.
output: 1.1

input: Using the record for NCc1c[nH]c2ccccc12 [B63] , state its measured ΔTm at 1000 µM.
output: 0.8

input: Using the record for CC(C)(C)Sc1cccnc1N [T2-15] , state its measured ΔTm at 1000 µM.
output: 2.5

input: Using the record for Nc1nc2ccccc2[nH]1 [M1-68] , state its measured ΔTm at 1000 µM.
output: 0.1

input: Using the record for NC1Cc2ccccc2C1 [M2-80] , state its measured ΔTm at 1000 µM.
output: -0.1

input: Using the record for Clc1cn2ccsc2n1 [M3-146] , state its measured ΔTm at 1000 µM.
output: -0.1

input: Using the record for O=[N+]([O-])c1ccc2[nH]ncc2c1 [B128] , state its measured ΔTm at 1000 µM.
output: 1.3

* * *

- tgt: SaMetRS (Staphylococcus aureus)
- Construct: full-length SaMetRS (SaMetRS-FL) (residues 1–657) was expressed and purified in the same manner; made in house; host or cells: E. coli BL21 (DE3)
- test protocol: isothermal titration calorimetry (ITC) assay
- Format: binding
- test context: apo protein, 25°C; read-out: Kd, ATP to SaMetRS
observable: pKd
A value of pKd is the negative decimal logarithm of a concentration given in moles per litre.

input: Using the record for Nc1ncnc2c1ncn2[C@@H]1O[C@H](COP(=O)(O)OP(=O)(O)OP(=O)(O)O)[C@@H](O)[C@H]1O [ATP] , state its measured pKd.
output: 4.28
